Subject of test: UniProt:P56817
Sequence (P56817 46-501): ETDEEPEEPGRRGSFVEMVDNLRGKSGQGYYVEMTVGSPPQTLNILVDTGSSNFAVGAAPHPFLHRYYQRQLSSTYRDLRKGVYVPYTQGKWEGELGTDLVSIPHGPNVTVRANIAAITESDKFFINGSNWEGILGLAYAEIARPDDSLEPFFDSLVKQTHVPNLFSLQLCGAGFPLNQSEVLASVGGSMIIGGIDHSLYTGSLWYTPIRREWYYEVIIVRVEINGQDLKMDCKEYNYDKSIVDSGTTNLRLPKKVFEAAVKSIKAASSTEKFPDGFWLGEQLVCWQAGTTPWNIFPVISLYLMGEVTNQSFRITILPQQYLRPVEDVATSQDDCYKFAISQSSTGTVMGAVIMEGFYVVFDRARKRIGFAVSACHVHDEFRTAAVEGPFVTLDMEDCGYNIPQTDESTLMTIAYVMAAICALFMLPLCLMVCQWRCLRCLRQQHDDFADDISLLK
Experimental details: In vitro enzymatic BACE FRET (fluorescence resonance energy transfer) assay;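 also: fluorescence read after 1 h with 50 nM quenched peptide substrate spanning the BACE cleavage site, in pH 4.2 acetate buffer containing 10% DMSO and nonionic detergent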
Type: biochemical
Protocol conditions: BACE enzyme assay IC50; read-out: BACE1 FRET assay
Endpoint name: pIC50
Convention used: pIC50 is expressed as -log10 of the molar concentration.

Record excerpt, results attached:
# Molecule, Subject of test, pIC50
measured = [
    ("COCC(=O)N[C@@H](Cc1ccc2c(c1)OCO2)[C@H](O)CN[C@H]1CC2(CCC2)Oc2c1cc(CC(C)C)nc2-c1ccncc1 [compound 669]", "UniProt:P56817", 7.47),
    ("Cc1cccc(CN2CCO[C@H](C(=O)N[C@@H](Cc3ccc(F)cc3)[C@H](O)CN[C@H]3CC4(CCC4)Oc4ncc(CC(C)(C)C)cc43)C2)c1 [compound 691]", "UniProt:P56817", 7.11),
]

Task: Report measured pIC50 on UniProt:P56817; entry: COCC(=O)N[C@@H](Cc1cc(F)cc(F)c1)[C@H](O)CN[C@H]1CC2(CCC2)Oc2c1cc(CC(C)C)nc2-c1nccn1C [compound 714]
Result: 7.80

Task: Give measured pIC50 for COCC(=O)N[C@@H](Cc1cc(F)cc(F)c1)[C@H](O)CN[C@H]1CC2(CCC2)Oc2c1cc(CC(C)C)nc2-c1cncn1C [compound 715] (UniProt:P56817).
Result: 7.70

Task: # lookup: UniProt:P56817 pIC50, key = CO[C@H](C)C(=O)N[C@@H](Cc1cc(F)cc(-c2nccs2)c1)[C@H](O)CN[C@H]1CC2(CCC2)Oc2ncc(CC(C)(C)F)cc21 [compound 742]
Result: 7.08

Task: Param request: pIC50 | system UniProt:P56817 | item COCC(=O)N[C@@H](Cc1ccc(F)cc1)[C@H](O)CN[C@H]1CC(C)(C)Oc2c1cc(CC(C)C)c1c2OCO1 [Example 747]
Result: 6.68

* * *

Experimental details: Microsomal stability assay, rat liver microsomes;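 also: rat liver microsomes (0.25 mg/mL) with about 1 µM compound plus 1 mM NADPH, pH 7.4, 37 °C for 30 min, parent left measured by LC-MS/MS against 0 min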
Protocol conditions: rat liver microsomes
Endpoint name: RLM (µL/min/mg)
Please reply with the bare figure in µL/min/mg and do not write the unit itself.

Consider the following illustrative entries.
# Compound, Endpoint unit, RLM
rows = [
    ("CN1CCO[C@H](C(=O)N[C@@H](Cc2ccc(F)cc2)[C@H](O)CN[C@H]2CC3(CCC3)Oc3ncc(CC(C)(C)C)cc32)C1 [compound 744]", "µL/min/mg", 266),
    ("COCC(=O)N[C@@H](Cc1ccc(F)c(-c2cncs2)c1)[C@H](O)CN[C@H]1CC2(CCC2)Oc2ncc(CC(C)(C)C)cc21 [compound 684]", "µL/min/mg", 114),
    ("COCC(=O)N[C@@H](Cc1cc(F)cc(-c2ncc(C)s2)c1)[C@H](O)CN[C@H]1CC2(CCC2)Oc2ncc(CC(C)C)cc21 [compound 732]", "µL/min/mg", 399),
]

Task: Return reported RLM. Input compound: CC(=O)N[C@@H](Cc1cccc(-n2ccnc2)c1)[C@H](O)CN[C@H]1CC2(CCC2)Oc2ccc(CC(C)(C)C)cc21 [compound 659]
Result: 413

Task: Specify reported RLM for the compound shown: COCC(=O)N[C@@H](Cc1cc(F)cc(F)c1)[C@H](O)CN[C@H]1CC2(CCC2)Oc2c1cc(CC(C)(C)C)nc2Nc1ccccc1 [compound 599]
Result: 125

Task: Tell me measured RLM for CC(=O)N[C@@H](Cc1cc(F)cc(-c2ccncc2)c1)[C@H](O)CN[C@H]1CC2(CCC2)Oc2ncc(CC(C)(C)C)cc21 [compound 614] please.
Result: 107

Task: Answer with reported RLM of CC(=O)N[C@@H](Cc1ccc(F)c(-c2cccnc2)c1)[C@H](O)CN[C@H]1CC2(CCC2)Oc2ccc(CC(C)(C)C)cc21 [compound 648]
Result: 560

Task: Query RLM for COCC(=O)N[C@@H](Cc1ccc(F)c(-c2nccs2)c1)[C@H](O)CN[C@H]1CC2(CCC2)Oc2ncc(CC(C)C)cc21 [compound 727]
Result: 74
